System: U-266 (Plasma Cell Myeloma)
Experiment: Bliss excess, mean over the matrix (fraction); higher = more synergy
quantity_measured: Bliss excess
Answers are plain numbers.

Worked set:
1. CC1(C)CCC(CN2CCN(c3ccc(C(=O)NS(=O)(=O)c4ccc(NCC5CCOCC5)c([N+](=O)[O-])c4)c(Oc4cnc5[nH]ccc5c4)c3)CC2)=C(c2ccc(Cl)cc2)C1 [Venetoclax] + Cn1cnc2c(F)c(Nc3ccc(Br)cc3Cl)c(C(=O)NOCCO)cc21 [Selumetinib] (first compound max 1 µM, 7x7, partner max 3 µM)	0.0137
2. N#Cc1cnc(Nc2cc(NC[C@H]3CNCCO3)c(C(F)(F)F)cn2)cn1 [SRA737] + Nc1ccn([C@@H]2O[C@H](CO)[C@@H](O)C2(F)F)c(=O)n1 [Gemcitabine] (first compound max 10 µM, 7x7, partner max 0.3 µM)	-0.0101
3. COc1nnc2ccc(N3CCC(c4ccc(OCCN5CCN(C)C(=O)[C@H]5C)cc4)CC3)nn12 [AZD5153] + Cn1cnc2c(F)c(Nc3ccc(Br)cc3Cl)c(C(=O)NOCCO)cc21 [Selumetinib] (first compound max 1 µM, 7x7, partner max 10 µM)	0.0347
4. CC1(C)CCC(CN2CCN(c3ccc(C(=O)NS(=O)(=O)c4ccc(NCC5CCOCC5)c([N+](=O)[O-])c4)c(Oc4cnc5[nH]ccc5c4)c3)CC2)=C(c2ccc(Cl)cc2)C1 [Venetoclax] + COc1cc(Nc2ncc3c(n2)-c2ccc(Cl)cc2C(c2c(F)cccc2OC)=NC3)ccc1C(=O)O [Alisertib] (first compound max 1 µM, 7x7, partner max 10 µM)	0.131

Each compound below has a reported value. Please supply its Bliss excess.
1. N#Cc1cnc(Nc2cc(NC[C@H]3CNCCO3)c(C(F)(F)F)cn2)cn1 [SRA737] + CCc1c2c(nc3ccc(O)cc13)-c1cc3c(c(=O)n1C2)COC(=O)[C@]3(O)CC [SN-38] (first compound max 10 µM, 7x7, partner max 0.3 µM)
2. O=C(c1cc(Cc2n[nH]c(=O)c3ccccc23)ccc1F)N1CCN(C(=O)C2CC2)CC1 [Olaparib] + COc1nnc2ccc(N3CCC(c4ccc(OCCN5CCN(C)C(=O)[C@H]5C)cc4)CC3)nn12 [AZD5153] (first compound max 10 µM, 7x7, partner max 1 µM)
3. COc1nnc2ccc(N3CCC(c4ccc(OCCN5CCN(C)C(=O)[C@H]5C)cc4)CC3)nn12 [AZD5153] + C=CCn1c(=O)c2cnc(Nc3ccc(N4CCN(C)CC4)cc3)nc2n1-c1cccc(C(C)(C)O)n1 [AZD1775] (first compound max 1 µM, partner max 1 µM)
4. Cc1cc2ncnn2cc1Nc1ncc2c(n1)n(C1CCOCC1)c(=O)n2C [AZD7648] + C[C@@H]1COCCN1C2=NC(=NC(=C2)C3(CC3)[S@](=N)(=O)C)C4=C5C=CNC5=NC=C4 [AZD6738] (first compound max 10 µM, 7x7, partner max 10 µM)
5. CS(=O)(=O)CCNCc1ccc(-c2ccc3ncnc(Nc4ccc(OCc5cccc(F)c5)c(Cl)c4)c3c2)o1 [Lapatinib] + Cn1cnc2c(F)c(Nc3ccc(Br)cc3Cl)c(C(=O)NOCCO)cc21 [Selumetinib] (first compound max 10 µM, 7x7, partner max 10 µM)

Given back:
[0.0402, -0.0332, -0.0922, -0.0168, 0.0347]

Each compound below has a reported value. Please supply its Bliss excess.
1. CN(CCO)CC[C@H](CSc1ccccc1)Nc1ccc(S(=O)(=O)NC(=O)c2ccc(N3CCC([C@@H](O)c4ccccc4-c4ccc(Cl)cc4)CC3)cc2)cc1S(=O)(=O)C(F)(F)F [AZD4320] + C1CN(CCC1(C(=O)N[C@@H](CCO)C2=CC=C(C=C2)Cl)N)C3=NC=NC4=C3C=CN4 [Capivasertib] (first compound max 1 µM, 7x7, partner max 3 µM)
2. Cc1nc(-c2cn3c(n2)-c2ccc(-c4cnn(C(C)(C)C(N)=O)c4)cc2OCC3)n(C(C)C)n1 [Taselisib] + O=C(Nc1ccc2[nH]nc(-c3ccncc3)c2c1)[C@@H]1CCN(CC(=O)N2CCN(c3ccc(-c4ncccn4)cc3)CC2)C1 [SCH772984] (first compound max 10 µM, 7x7, partner max 5 µM)

Given back:
[-0.0061, 0.0774]

---

Exercise: state measured Bliss excess for each of the molecules provided.
Tested on: LS-513 (Colorectal Carcinoma)
Experiment: Bliss excess, mean over the matrix (fraction); higher = more synergy
One number for each entry.

1. Cc1nc(-c2cn3c(n2)-c2ccc(-c4cnn(C(C)(C)C(N)=O)c4)cc2OCC3)n(C(C)C)n1 [Taselisib] + O=C(Nc1ccc2[nH]nc(-c3ccncc3)c2c1)[C@@H]1CCN(CC(=O)N2CCN(c3ccc(-c4ncccn4)cc3)CC2)C1 [SCH772984] (first compound max 10 µM, 7x7, partner max 5 µM)	-0.0377

Each molecule below has a reported value. Please supply its Bliss excess.
1. COc1cccc(OCCCN)c1-c1cc(Nc2cnc(C#N)cn2)n[nH]1 [Prexasertib] + CCc1c2c(nc3ccc(O)cc13)-c1cc3c(c(=O)n1C2)COC(=O)[C@]3(O)CC [SN-38] (first compound max 1 µM, 7x7, partner max 0.3 µM)
2. CC1(C)CCC(CN2CCN(c3ccc(C(=O)NS(=O)(=O)c4ccc(NCC5CCOCC5)c([N+](=O)[O-])c4)c(Oc4cnc5[nH]ccc5c4)c3)CC2)=C(c2ccc(Cl)cc2)C1 [Venetoclax] + COc1cc(Nc2ncc3c(n2)-c2ccc(Cl)cc2C(c2c(F)cccc2OC)=NC3)ccc1C(=O)O [Alisertib] (first compound max 1 µM, 7x7, partner max 10 µM)
3. CC1(C)CCC(CN2CCN(c3ccc(C(=O)NS(=O)(=O)c4ccc(NCC5CCOCC5)c([N+](=O)[O-])c4)c(Oc4cnc5[nH]ccc5c4)c3)CC2)=C(c2ccc(Cl)cc2)C1 [Venetoclax] + CCN(CCO)CCCOc1ccc2c(Nc3cc(CC(=O)Nc4cccc(F)c4)[nH]n3)ncnc2c1 [AZD2811] (first compound max 1 µM, 7x7, partner max 1 µM)

Given back:
-0.0691
-0.0655
-0.0407

Memo: C=CCn1c(=O)c2cnc(Nc3ccc(N4CCN(C)CC4)cc3)nc2n1-c1cccc(C(C)(C)O)n1 [AZD1775] + C[C@@H]1COCCN1C2=NC(=NC(=C2)C3(CC3)[S@](=N)(=O)C)C4=C5C=CNC5=NC=C4 [AZD6738] (first compound max 1 µM, partner max 10 µM) , reported Bliss excess: -0.0242

---

Test system: NB(TU)1-10 (Neuroblastoma)
Assay: combination Emax (second highest fraction inhibited in the dose matrix, 72 h); higher = more inhibition; extreme values may be limits of the assay
Exercise: state measured combination Emax for each of the molecules provided.
One number for each entry.

1. COc1cccc(OCCCN)c1-c1cc(Nc2cnc(C#N)cn2)n[nH]1 [Prexasertib] + O=C(c1cc(Cc2n[nH]c(=O)c3ccccc23)ccc1F)N1CCN(C(=O)C2CC2)CC1 [Olaparib] (first compound max 1 µM, 7x7, partner max 10 µM)	0.885

Each molecule below has a reported value. Please supply its combination Emax.
1. C=CCn1c(=O)c2cnc(Nc3ccc(N4CCN(C)CC4)cc3)nc2n1-c1cccc(C(C)(C)O)n1 [AZD1775] + C[C@@H]1COCCN1C2=NC(=NC(=C2)C3(CC3)[S@](=N)(=O)C)C4=C5C=CNC5=NC=C4 [AZD6738] (first compound max 1 µM, partner max 10 µM)
2. COc1cccc(OCCCN)c1-c1cc(Nc2cnc(C#N)cn2)n[nH]1 [Prexasertib] + CCc1c2c(nc3ccc(O)cc13)-c1cc3c(c(=O)n1C2)COC(=O)[C@]3(O)CC [SN-38] (first compound max 1 µM, 7x7, partner max 0.3 µM)

Given back:
0.875
0.922

---

Test system: HPAC (Pancreatic Carcinoma)
Assay: Bliss excess, mean over the matrix (fraction); higher = more synergy
Decide using Bliss excess: a value greater than or equal to -0.02 is 1.0, a smaller one is 0.0.

1) COc1nnc2ccc(N3CCC(c4ccc(OCCN5CCN(C)C(=O)[C@H]5C)cc4)CC3)nn12 [AZD5153] + Cc1c2c(nn1C)CSCc1cc(n(C)n1)CSc1cc(c3ccccc3c1)OCCCc1c(C(=O)O)n(C)c3c-2c(Cl)ccc13 [AZD5991] (first compound max 1 µM, 7x7, partner max 1 µM)	1.0
2) Cc1c2c(nn1C)CSCc1cc(n(C)n1)CSc1cc(c3ccccc3c1)OCCCc1c(C(=O)O)n(C)c3c-2c(Cl)ccc13 [AZD5991] + C1CN(CCC1(C(=O)N[C@@H](CCO)C2=CC=C(C=C2)Cl)N)C3=NC=NC4=C3C=CN4 [Capivasertib] (first compound max 1 µM, 7x7, partner max 3 µM)	0.0
3) COc1cc2ncnc(Nc3ccc(F)c(Cl)c3)c2cc1OCCCN1CCOCC1 [Gefitinib] + CC(C)n1c(=O)n(C)c2cnc3cc(F)c(-c4ccc(OCCCN5CCCCC5)nc4)cc3c21 [AZD1390] (first compound max 10 µM, 7x7, partner max 0.3 µM)	0.0
4) COc1nnc2ccc(N3CCC(c4ccc(OCCN5CCN(C)C(=O)[C@H]5C)cc4)CC3)nn12 [AZD5153] + CN(CC[C@H](CSC1=CC=CC=C1)NC2=C(C=C(C=C2)S(=O)(=O)NC(=O)C3=CC=C(C=C3)N4CCC(CC4)[C@H](C5=CC=CC=C5C6=CC=C(C=C6)Cl)O)S(=O)(=O)C(F)(F)F)CCO [AZD4320] (first compound max 1 µM, 7x7, partner max 1 µM)	1.0
5) CC(=O)c1c(C)c2cnc(Nc3ccc(N4CCNCC4)cn3)nc2n(C2CCCC2)c1=O [Palbociclib] + CN(CC[C@H](CSC1=CC=CC=C1)NC2=C(C=C(C=C2)S(=O)(=O)NC(=O)C3=CC=C(C=C3)N4CCC(CC4)[C@H](C5=CC=CC=C5C6=CC=C(C=C6)Cl)O)S(=O)(=O)C(F)(F)F)CCO [AZD4320] (first compound max 10 µM, 7x7, partner max 1 µM)	0.0
6) CC1(C)CCC(CN2CCN(c3ccc(C(=O)NS(=O)(=O)c4ccc(NCC5CCOCC5)c([N+](=O)[O-])c4)c(Oc4cnc5[nH]ccc5c4)c3)CC2)=C(c2ccc(Cl)cc2)C1 [Venetoclax] + Cc1cc2ncnn2cc1Nc1ncc2c(n1)n(C1CCOCC1)c(=O)n2C [AZD7648] (first compound max 1 µM, 7x7, partner max 10 µM)	1.0
7) CCc1c2c(nc3ccc(O)cc13)-c1cc3c(c(=O)n1C2)COC(=O)[C@]3(O)CC [SN-38] + O=C(c1cc(Cc2n[nH]c(=O)c3ccccc23)ccc1F)N1CCN(C(=O)C2CC2)CC1 [Olaparib] (first compound max 0.3 µM, 7x7, partner max 10 µM)	1.0
8) COc1cccc(OCCCN)c1-c1cc(Nc2cnc(C#N)cn2)n[nH]1 [Prexasertib] + CCc1c2c(nc3ccc(O)cc13)-c1cc3c(c(=O)n1C2)COC(=O)[C@]3(O)CC [SN-38] (first compound max 1 µM, 7x7, partner max 0.3 µM)	1.0

Asked: # bool: Bliss excess of NC1(C(=O)N[C@@H](CCO)c2ccc(Cl)cc2)CCN(c2ncnc3[nH]ccc23)CC1 [Capivasertib] + Cn1cnc2c(F)c(Nc3ccc(Br)cc3Cl)c(C(=O)NOCCO)cc21 [Selumetinib] (first compound max 10 µM, 7x7, partner max 10 µM) >= -0.02
Given back: 1.0

Asked: # bool: Bliss excess of Cc1cc2ncnn2cc1Nc1ncc2c(n1)n(C1CCOCC1)c(=O)n2C [AZD7648] + CN(C)CCCOc1ccc(-c2ccc3ncc4c(c3c2)n(C2CCOCC2)c(=O)n4C)cn1 [AZD0156] (first compound max 10 µM, 7x7, partner max 1 µM) >= -0.02
Given back: 1.0

Asked: # bool: Bliss excess of C[C@@H](c1ccc2nccn2c1)n1nnc2ncc(-c3cnn(C)c3)nc21 [Savolitinib] + CN(CC[C@H](CSC1=CC=CC=C1)NC2=C(C=C(C=C2)S(=O)(=O)NC(=O)C3=CC=C(C=C3)N4CCC(CC4)[C@H](C5=CC=CC=C5C6=CC=C(C=C6)Cl)O)S(=O)(=O)C(F)(F)F)CCO [AZD4320] (first compound max 1 µM, 7x7, partner max 1 µM) >= -0.02
Given back: 0.0

Asked: # bool: Bliss excess of Cc1c2c(nn1C)CSCc1cc(n(C)n1)CSc1cc(c3ccccc3c1)OCCCc1c(C(=O)O)n(C)c3c-2c(Cl)ccc13 [AZD5991] + Cc1cc2ncnn2cc1Nc1ncc2c(n1)n(C1CCOCC1)c(=O)n2C [AZD7648] (first compound max 1 µM, 7x7, partner max 10 µM) >= -0.02
Given back: 0.0
